assay: activity coefficient (dimensionless); of the first substance listed, at infinite dilution; xn = mol fraction of the nth substance listed; conditions: 332.65 K; Liquid; Chromatography; x1 = 0
activity coefficient: recorded values
Form: value (number only, do not type unit).

COMPOUND	activity coefficient
CCCO [propan-1-ol] + CCCC[N+](C)(CCCC)CCCC.O=S(=O)([N-]S(=O)(=O)C(F)(F)F)C(F)(F)F	1.64
CCCCCC [hexane] + CCCCCCCC[N+](CCCCCCCC)(CCCCCCCC)CCCCCCCC.O=S(=O)([N-]S(=O)(=O)C(F)(F)F)C(F)(F)F	1.29
CCC(C)CC [3-methylpentane] + CCCCCCCCCC[N+](C)(C)C.O=S(=O)([N-]S(=O)(=O)C(F)(F)F)C(F)(F)F	3.78
OCC(F)(F)F [2,2,2-trifluoroethanol] + CCCCCCCC[N+](C)(C)C.O=S(=O)([N-]S(=O)(=O)C(F)(F)F)C(F)(F)F	0.38
c1ccncc1 [pyridine] + CCCC[N+](C)(CCCC)CCCC.O=S(=O)([N-]S(=O)(=O)C(F)(F)F)C(F)(F)F	0.56

## Task Give the measured activity coefficient for C=O [methanal] + CCCC[N+](C)(CCCC)CCCC.O=S(=O)([N-]S(=O)(=O)C(F)(F)F)C(F)(F)F
## Result 0.12

## Task Give the measured activity coefficient for CC1CCCCC1 [methylcyclohexane] + CCCCCCCC[N+](C)(C)C.O=S(=O)([N-]S(=O)(=O)C(F)(F)F)C(F)(F)F
## Result 4.93

====

test: activity coefficient (dimensionless); of the first substance listed, at infinite dilution; xn = mol fraction of the nth substance listed; conditions: 343.15 K; Liquid; Chromatography; x1 = 0
activity coefficient: recorded values
Form: value (number only, do not type unit).

Record excerpt, results attached:
COMPOUND	activity coefficient
CCCCCCCCCCC [undecane] + CCCCCCCC[N+](CCCCCCCC)(CCCCCCCC)CCCCCCCC.O=S(=O)([N-]S(=O)(=O)C(F)(F)F)C(F)(F)F	2.54
CCc1ccccc1 [ethylbenzene] + CCCCCCCC[N+](CCCCCCCC)(CCCCCCCC)CCCCCCCC.O=S(=O)([N-]S(=O)(=O)C(F)(F)F)C(F)(F)F	0.61

## Task Give the measured activity coefficient for CC(C)CO [2-methyl-1-propanol] + CCCCCCCC[N+](C)(C)C.O=S(=O)([N-]S(=O)(=O)C(F)(F)F)C(F)(F)F
## Result 1.51

## Task Give the measured activity coefficient for Cc1ccccc1 [toluene] + CCCCCCCC[N+](C)(C)C.O=S(=O)([N-]S(=O)(=O)C(F)(F)F)C(F)(F)F
## Result 0.98

## Task Give the measured activity coefficient for CCN(CC)CC [triethylamine] + CCCCCCCCCC[N+](C)(C)C.O=S(=O)([N-]S(=O)(=O)C(F)(F)F)C(F)(F)F
## Result 2.31

## Task Give the measured activity coefficient for C1CCCCC1 [cyclohexane] + CCCC[N+](C)(CCCC)CCCC.O=S(=O)([N-]S(=O)(=O)C(F)(F)F)C(F)(F)F
## Result 4.44

## Task Give the measured activity coefficient for C1CCCCC1 [cyclohexane] + CCCCCCCCCC[N+](C)(C)C.O=S(=O)([N-]S(=O)(=O)C(F)(F)F)C(F)(F)F
## Result 2.8

## Task Give the measured activity coefficient for CC#N [acetonitrile] + CCCCCCCC[N+](CCCCCCCC)(CCCCCCCC)CCCCCCCC.O=S(=O)([N-]S(=O)(=O)C(F)(F)F)C(F)(F)F
## Result 0.49
